Molecular target: APJ (Apelin receptor) (Homo sapiens)
Sequence (P35414 1-380): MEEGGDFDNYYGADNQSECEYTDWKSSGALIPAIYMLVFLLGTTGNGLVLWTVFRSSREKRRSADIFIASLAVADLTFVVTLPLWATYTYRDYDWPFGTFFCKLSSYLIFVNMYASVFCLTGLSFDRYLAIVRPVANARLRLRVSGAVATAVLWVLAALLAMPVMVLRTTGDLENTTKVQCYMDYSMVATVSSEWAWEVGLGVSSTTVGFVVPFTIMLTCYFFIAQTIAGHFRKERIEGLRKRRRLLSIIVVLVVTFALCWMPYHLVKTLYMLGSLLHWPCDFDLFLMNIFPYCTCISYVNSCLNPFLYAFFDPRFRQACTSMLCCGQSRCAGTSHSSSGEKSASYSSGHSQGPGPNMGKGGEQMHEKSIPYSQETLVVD
Assay: Radioligand competition binding assay, [125I]-apelin-13, HEK-293/APJ membranes
Set-up: APJ membrane preparations were obtained from transiently transfected HEK293 cells; host or cells: HEK293 cells, transiently transfected; membranes prepared
No end group written: not given here.
valueType: Ki (nM)
Give bare numbers, in nM.

Problem: May I ask what Ki has been recorded for LVQPRGSRNGPGPWQGGRRKFRRQRPRLSHKGPMPF [Apelin-36] ?
Solution: 1.74

Taken from paper PMC7970304.
